# System tested: human recombinant serotonin (5-Hydroxytryptamine) 5-HT6 receptor (Homo sapiens, UniProt P50406)
# Construct: expressed in transfected cells; host or cells: human HeLa cells
# Sequence (P50406 whole entry): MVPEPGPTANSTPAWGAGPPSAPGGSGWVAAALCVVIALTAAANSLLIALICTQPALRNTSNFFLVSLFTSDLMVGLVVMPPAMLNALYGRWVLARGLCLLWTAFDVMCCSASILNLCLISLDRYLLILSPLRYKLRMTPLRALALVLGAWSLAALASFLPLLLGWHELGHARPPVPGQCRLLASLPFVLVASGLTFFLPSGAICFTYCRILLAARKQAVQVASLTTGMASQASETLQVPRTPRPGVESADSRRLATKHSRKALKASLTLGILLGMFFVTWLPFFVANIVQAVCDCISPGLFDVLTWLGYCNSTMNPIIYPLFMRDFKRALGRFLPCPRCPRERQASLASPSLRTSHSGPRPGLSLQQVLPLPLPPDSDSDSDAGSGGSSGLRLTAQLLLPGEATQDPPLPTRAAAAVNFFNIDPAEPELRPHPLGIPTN
# Method notes: Serotonin 5-HT6 radioligand binding assay ([3H]LSD)
# Assay conditions: compound at 0.1 μM, HeLa cells, read-out: Percent Inhibition of ligand binding, Serotonin (0.1 μM) 5-HT6
Assign inhibition at 0.1 µM to each entry below.
Give bare numbers, in %.

Cc1ccc(CCn2c3c(c4cc(Cl)ccc42)CN(C)C(C)C3)cn1 (stereo not drawn)    50
CCCC[C@@](O)(Cn1c2c(c3cc(Cl)ccc31)CN(C)CC2)c1ccc(F)cc1    25
Cc1ccc2c(c1)c1c(n2CCc2ccc(C)nc2)CC(C)N(C)C1 (stereo not drawn)    46
Cc1ccc2c(c1)c1c(n2CC(C)(O)c2ccncc2)CCN(CC(F)(F)F)C1 (stereo not drawn)    2
Cc1ccc2c(c1)c1c(n2CC(C)c2ccncc2)CCN(C)C1 (stereo not drawn)    45

For each listed entry, give its inhibition at 0.1 µM.
1. COc1cccc2c3c(n(CC(C)(O)c4ccncc4)c12)CCN(C)C3 (stereo not drawn)
2. CCC(O)(Cn1c2c(c3cc(C)ccc31)CN(C)CC2)c1ccncc1 (stereo not drawn)
3. CC[C@@](O)(Cn1c2c(c3cc(C)ccc31)CN(C)CC2)c1ccncc1
4. CC[C@](O)(Cn1c2c(c3cc(C)ccc31)CN(C)CC2)c1ccc(F)cc1
5. Cc1ccc2c(c1)c1c(n2CC(C)(O)c2ccncc2)CCN(C2CC2)C1 (stereo not drawn)
6. Cc1ccc2c(c1)c1c(n2CC(C)c2ccc(C)nc2)CC(C)N(C)C1 (stereo not drawn)
7. Cc1ccc2c(c1)c1c(n2CC(C)(O)c2ccncc2)CC(C)N(C)C1 (stereo not drawn)
8. Cc1ccc2c(c1)c1c(n2CCc2ccc(C(F)(F)F)nc2)CC(C)N(C)C1 (stereo not drawn)

1. -7
2. 10
3. 28
4. 48
5. 1
6. 19
7. -1
8. 18

---

# System tested: rat adrenergic α1B receptor (Rattus norvegicus, UniProt P15823)
# Construct: from tissue; host or cells: Wistar Rat liver
# Sequence (P15823 whole entry): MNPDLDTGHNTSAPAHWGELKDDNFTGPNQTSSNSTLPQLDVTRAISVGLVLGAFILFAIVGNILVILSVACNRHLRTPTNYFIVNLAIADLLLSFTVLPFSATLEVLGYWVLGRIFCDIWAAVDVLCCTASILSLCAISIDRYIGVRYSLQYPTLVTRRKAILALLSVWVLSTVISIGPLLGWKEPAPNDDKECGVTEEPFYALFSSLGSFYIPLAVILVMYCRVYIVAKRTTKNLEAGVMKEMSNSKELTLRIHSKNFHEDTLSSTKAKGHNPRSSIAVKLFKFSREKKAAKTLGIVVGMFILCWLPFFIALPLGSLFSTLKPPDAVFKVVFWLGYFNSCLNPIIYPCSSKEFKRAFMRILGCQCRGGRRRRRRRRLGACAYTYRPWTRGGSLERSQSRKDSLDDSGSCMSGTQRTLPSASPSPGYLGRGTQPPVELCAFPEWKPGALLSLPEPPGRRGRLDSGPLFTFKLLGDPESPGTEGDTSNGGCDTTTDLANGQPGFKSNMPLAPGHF
# Method notes: Adrenergic α1B radioligand binding assay ([3H]Prozosin)
# Assay conditions: compound at 0.1 μM; 0.25 nM [3H]Prozosin; Wistar Rat liver; read-out: Percent Inhibition of ligand binding, Adrenergic (0.1 μM) a1B
Assign inhibition at 0.1 µM to each entry below.
One number for each entry, in %.

CC[C@@](O)(Cn1c2c(c3cc(C)ccc31)CN(C)CC2)c1ccc(F)cc1    11
Cc1ccc2c(c1)c1c(n2CC(O)c2ccncc2)CCN(C)C1 (stereo not shown)    54
CN1CCc2c(c3cc(Cl)c(Cl)cc3n2CC(C)(O)c2ccncc2)C1 (stereo not shown)    55
CCCC[C@@](O)(Cn1c2c(c3cc(Cl)ccc31)CN(C)CC2)c1ccc(F)cc1    -2
COc1ccc([C@](C)(O)Cn2c3c(c4cc(C)ccc42)CN(C)CC3)cc1    63

For each listed entry, give its inhibition at 0.1 µM.
1. CCCC[C@](O)(Cn1c2c(c3cc(Cl)ccc31)CN(C)CC2)c1ccc(F)cc1
2. Cc1ccc2c(c1)c1c(n2CCc2ccc(C)nc2)CCN(CC(F)(F)F)C1
3. CN1CCc2c(c3cc(Cl)ccc3n2CC(O)c2ccncc2)C1 (stereo not shown)
4. CC[C@](O)(Cn1c2c(c3cc(C)ccc31)CN(C)CC2)c1ccncc1

[0, -4, 60, 5]

Which inhibition at 0.1 µM is listed for CC[C@](O)(Cn1c2c(c3cc(C)ccc31)CN(C)CC2)c1ccc(F)cc1 ? -2

---

# System tested: human recombinant adrenergic α1D receptor (Homo sapiens, UniProt P25100)
# Construct: expressed in transfected cells; host or cells: human embryonic kidney (HEK-293) cells
# Sequence (P25100 whole entry): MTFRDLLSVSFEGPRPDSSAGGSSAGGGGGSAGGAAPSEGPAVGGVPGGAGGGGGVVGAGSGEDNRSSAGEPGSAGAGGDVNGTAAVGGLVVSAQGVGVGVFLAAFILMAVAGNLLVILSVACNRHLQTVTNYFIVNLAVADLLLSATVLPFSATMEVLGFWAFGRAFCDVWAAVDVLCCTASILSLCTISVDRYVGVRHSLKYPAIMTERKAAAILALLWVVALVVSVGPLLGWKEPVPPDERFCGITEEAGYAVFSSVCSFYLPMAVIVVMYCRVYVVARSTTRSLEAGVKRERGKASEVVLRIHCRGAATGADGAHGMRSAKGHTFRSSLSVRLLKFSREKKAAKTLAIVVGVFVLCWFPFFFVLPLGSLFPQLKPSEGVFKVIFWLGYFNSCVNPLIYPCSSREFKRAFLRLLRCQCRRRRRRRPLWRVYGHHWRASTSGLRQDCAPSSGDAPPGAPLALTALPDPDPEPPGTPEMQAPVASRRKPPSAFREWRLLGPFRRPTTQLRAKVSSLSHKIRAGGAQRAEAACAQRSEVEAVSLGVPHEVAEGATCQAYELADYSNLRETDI
# Method notes: Adrenergic α1D radioligand binding assay ([3H]Prozosin)
# Assay conditions: compound at 1 μM; 0.6 nM [3H]Prozosin; HEK-293 cells; read-out: Percent Inhibition of ligand binding, Adrenergic (1 μM) a1D
Parameter: inhibition at 1 µM (%)
One number for each entry, in %.

Cc1ccc2c(c1)c1c(n2CCc2ccc(C)nc2)CCN(CCCO)C1    55
Cc1ccc2c(c1)c1c(n2CC(=O)c2ccc(F)cc2)CCN(C)C1    57
Cc1ccc2c(c1)c1c(n2CCc2ccc(CCCN)nc2)CCN(C)C1    53
CN1CCc2c(c3cc(Cl)ccc3n2CC(=O)c2ccc(Cl)cc2)C1    56
Cc1ccc2c(c1)c1c(n2CCc2ccc(C)nc2)CCN(CCC#N)C1    6
CN1CCc2c(c3cc(Cl)ccc3n2CC(=O)c2ccc(F)cc2)C1    56
Cc1ccc2c(c1)c1c(n2CC(=O)c2ccccc2)CCN(C)C1    18
COc1ccc(C(C)(O)Cn2c3c(c4cc(C)ccc42)CN(C)CC3)cc1 (stereo not shown)    57

For each listed entry, give its inhibition at 1 µM.
1. CN1CCc2c(c3cc(Cl)ccc3n2CC(=O)c2ccccc2)C1
2. Cc1ccc2c(c1)c1c(n2CCc2ccc(C(F)(F)F)nc2)CCNC1

52
74

---

# System tested: human recombinant serotonin (5-Hydroxytryptamine) 5-HT7 receptor (Homo sapiens, UniProt P34969)
# Sequence (P34969 whole entry): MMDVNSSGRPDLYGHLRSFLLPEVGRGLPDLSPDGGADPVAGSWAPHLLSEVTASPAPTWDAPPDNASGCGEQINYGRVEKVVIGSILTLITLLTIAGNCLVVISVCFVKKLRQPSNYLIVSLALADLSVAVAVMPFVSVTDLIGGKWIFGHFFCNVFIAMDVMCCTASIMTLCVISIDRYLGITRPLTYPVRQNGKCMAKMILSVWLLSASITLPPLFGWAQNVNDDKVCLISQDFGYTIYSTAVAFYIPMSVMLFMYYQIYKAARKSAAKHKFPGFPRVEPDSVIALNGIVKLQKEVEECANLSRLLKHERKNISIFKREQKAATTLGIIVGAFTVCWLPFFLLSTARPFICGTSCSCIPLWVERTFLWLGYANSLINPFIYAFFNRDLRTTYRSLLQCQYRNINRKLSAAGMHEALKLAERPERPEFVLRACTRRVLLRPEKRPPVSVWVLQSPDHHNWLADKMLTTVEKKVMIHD
# Method notes: Serotonin 5-HT7 radioligand binding assay ([3H]LSD)
# Assay conditions: compound at 1 μM; 5.5 nM [3H]LSD; CHO cells; read-out: Percent Inhibition of ligand binding, Serotonin (1 μM) 5-HT7
Assign inhibition at 1 µM to each entry below.

// below: answered compounds
Cc1ccc2c(c1)c1c(n2CCc2ccc(C)nc2)CCN(CCCO)C1 [Compound 1-42]    63%
Cc1ccc2c(c1)c1c(n2CCc2ccc(C)nc2)CCN(CCCCO)C1 [Compound 1-43]    66%
Cc1ccc2c(c1)c1c(n2CCc2ccc(C(F)(F)F)nc2)CCNC1 [Compound 1-41]    59%
CN1CCc2c(c3cc(Cl)ccc3n2CC(=O)c2ccc(Cl)cc2)C1 [Compound 1-38]    81%
Cc1ccc2c(c1)c1c(n2CC(=O)c2ccc(F)cc2)CCN(C)C1 [Compound 1-39]    95%

Field: next compound
Which inhibition at 1 µM is listed for CN1CCc2c(c3cc(Cl)ccc3n2CC(=O)c2ccc(F)cc2)C1 [Compound 1-37] ? 73%

---

# System tested: human recombinant serotonin (5-Hydroxytryptamine) 5-HT7 receptor (Homo sapiens)
# Method notes: Serotonin 5-HT7 radioligand binding assay ([3H]LSD)
# Assay conditions: compound at 0.1 μM; 5.5 nM [3H]LSD; CHO cells; read-out: Percent Inhibition of ligand binding, Serotonin (0.1 μM) 5-HT7
Parameter: inhibition at 0.1 µM (%)
Give bare numbers, in %.

For each listed entry, give its inhibition at 0.1 µM.
1. Cc1ccc2c(c1)c1c(n2CCc2ccc(C(F)(F)F)nc2)CC(C)N(C)C1 (centres unmarked) [Compound 1-45]
2. Cc1ccc2c(c1)c1c(n2CC(C)c2ccc(C)nc2)CC(C)N(C)C1 (centres unmarked) [Compound 1-47]
3. CC[C@@](O)(Cn1c2c(c3cc(C)ccc31)CN(C)CC2)c1ccc(F)cc1 [Compound 1-66]
4. Cc1ccc2c(c1)c1c(n2CCc2ccc(C(F)(F)F)nc2)C(C)CN(C)C1 (centres unmarked) [Compound 1-51]
5. Cc1ccc2c(c1)c1c(n2CC(C)(O)c2ccncc2)CCN(C2CC2)C1 (centres unmarked) [Compound 1-30]
6. CC(C)c1ccc2c3c(n(CC(C)(O)c4ccncc4)c2c1)CCN(C)C3 (centres unmarked) [Compound 1-32]

1: 78; 2: 85; 3: 19; 4: 15; 5: 6; 6: 31

For each listed entry, give its inhibition at 0.1 µM.
1. Cc1ccc2c(c1)c1c(n2CC(C)(O)c2ccncc2)CC(C)N(C)C1 (centres unmarked) [Compound 1-33]
2. Cc1ccc2c(c1)c1c(n2CC(C)(C)c2ccncc2)CCN(C)C1 [Compound 1-49]

[40, 95]

---

# System tested: human recombinant adrenergic α2C receptor (Homo sapiens, UniProt P18825)
# Construct: expressed in transfected cells; host or cells: insect Sf9 cells
# Sequence (P18825 whole entry): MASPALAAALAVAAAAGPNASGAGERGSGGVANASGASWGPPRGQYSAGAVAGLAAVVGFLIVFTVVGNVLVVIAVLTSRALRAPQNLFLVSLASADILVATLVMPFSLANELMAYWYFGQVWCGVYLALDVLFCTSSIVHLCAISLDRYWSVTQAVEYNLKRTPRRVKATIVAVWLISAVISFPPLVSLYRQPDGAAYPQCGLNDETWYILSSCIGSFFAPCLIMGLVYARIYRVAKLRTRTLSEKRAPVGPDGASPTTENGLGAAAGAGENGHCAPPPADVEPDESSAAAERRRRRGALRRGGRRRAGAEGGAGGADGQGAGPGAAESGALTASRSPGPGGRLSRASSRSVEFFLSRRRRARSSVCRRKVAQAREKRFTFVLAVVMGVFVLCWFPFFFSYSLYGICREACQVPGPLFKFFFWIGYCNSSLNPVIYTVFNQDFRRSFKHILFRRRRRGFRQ
# Method notes: Adrenergic α2C radioligand binding assay ([3H]MK-912)
# Assay conditions: compound at 0.1 μM; 1 nM [3H]MK-912; insect Sf9 cells; read-out: Percent Inhibition of ligand binding, Adrenergic (0.1 μM) a2C
Would you please tag the item fulfilled when its inhibition at 0.1 µM is 20% or above, and not fulfilled when it is below?

CC[C@](O)(Cn1c2c(c3cc(C)ccc31)CN(C)CC2)c1ccncc1 [Compound 1-63]    not fulfilled
CCCC[C@@](O)(Cn1c2c(c3cc(Cl)ccc31)CN(C)CC2)c1ccc(F)cc1 [Compound 1-67]    not fulfilled
CN1CCc2c(c3cc(Cl)ccc3n2CC(O)c2ccncc2)C1 (stereo not shown) [Compound 1-11]    fulfilled
CN1CCc2c(c3cc(Cl)c(Cl)cc3n2CC(C)(O)c2ccncc2)C1 (stereo not shown) [Compound 1-17]    fulfilled
Cc1ccc2c(c1)c1c(n2CC(C)c2ccncc2)CCN(C)C1 (stereo not shown) [Compound 1-46]    fulfilled

Entry COc1ccc([C@](C)(O)Cn2c3c(c4cc(C)ccc42)CN(C)CC3)cc1 [Compound 1-20] : is its inhibition at 0.1 µM no less than 20%? fulfilled

Follow-up item: CC[C@@](O)(Cn1c2c(c3cc(C)ccc31)CN(C)CC2)c1ccc(F)cc1 [Compound 1-66] not fulfilled

Follow-up item: CC[C@](O)(Cn1c2c(c3cc(C)ccc31)CN(C)CC2)c1ccc(F)cc1 [Compound 1-60] not fulfilled

Follow-up item: CCCC[C@](O)(Cn1c2c(c3cc(Cl)ccc31)CN(C)CC2)c1ccc(F)cc1 [Compound 1-61] not fulfilled

Follow-up item: Cc1ccc2c(c1)c1c(n2CC(O)c2ccncc2)CCN(C)C1 (stereo not shown) [Compound 1-8] not fulfilled
